Reference source: ChEMBL document CHEMBL1201862

# Test system: Malme-3M
# protocol: NCI tumour cell line growth inhibition, 48 h
Active and inactive are the calls of the source. Cut-off read from the data, not from the text of the source: active = GI50 up to about 1.1 µM and inactive = higher.
Choose the fitting class; nothing outside Yes for active, No for inactive is accepted.

COc1ccc(-c2c(CN3CCOCC3)sc3nc4ccccc4n23)cc1 ... No
COC(=O)/C(=N\NC(N)=O)C(C(=O)C=C(C)C)C(=O)C(=O)Nc1ccc(Cl)c(Cl)c1 (stereo not given) ... No
CC(C)(C)OC(=O)N1CCCC1C(=O)NCCNc1ccc(NCCNC(=O)C2CCCN2C(=O)OC(C)(C)C)c2c1C(=O)c1ccccc1C2=O (stereo not given) ... No

What call does the record list for COc1cccc(N2C(=O)C3c4[nH]c5ccc(C)cc5c4C4CCC(C)CC4C3C2=O)c1 (stereo not given) ?
No

Field: outcome | Entry: `Brc1ccc(/C=N/C23CC4CC(CC(C4)C2)C3)cc1`
No

Recorded call for CCC(C)C(N)C(=O)N/N=C\c1c2c(nc3ccccc13)-c1cc3c(c(=O)n1C2)COC(=O)[C@]3(O)CC (stereo not given in full) ?
Yes

Please share the test call associated with CCC(C)NC(=S)N/N=C(\C)c1nc2cccnc2[nH]1 (stereo not given) .
No

What call does the record list for `O=C1C=CC(=O)N1n1c(Cc2ccccc2)n[nH]c1=O` ?
No

For CC12Nc3ccccc3C1=C(c1ccccc1)CC1C(=O)OC(=O)C12 (stereo not given) , which call appears in the assay record?
No

Per the assay record, what outcome was assigned to CC(C)C1CC(CO)(CNc2nc(N)nc(Cl)c2C=O)C1 (stereo not given) ?
No

I would be grateful if you could indicate the recorded call for `CCSSCS(C)(=O)=O` .
No

# outcome recorded in this test, key = `CC(C)c1ccc(/C=C2\N=C(c3ccc([N+](=O)[O-])cc3)OC2=O)cc1`
No

How was `O=C1NC(=S)NC(=O)C1=Cc1cc2c(cc1[N+](=O)[O-])OCO2` classified in this test?
No

Dear colleague, could you share the recorded outcome for `O=C1/C(=C/c2ccc(O)cc2)CC/C1=C\c1ccc(O)cc1` when you have a moment?
No

Short answer needed: outcome of this test for `O=S(=O)(Nc1nc2ccccc2nc1N1CCCCCC1)c1ccccc1` ?
No

In this assay, the call recorded for `C=C(C)[C@@H]1CC[C@]2(C(=O)O)CC[C@]3(C)[C@H](CC[C@@H]4[C@@]5(C)CC[C@H](C(=O)/C=C/c6ccc(O)cc6)C(C)(C)[C@@H]5CC[C@]43C)[C@@H]12` was what?
No

Test call, this compound: COc1ccc(OC)c(N2C(=O)CSC2c2cc(OC)c(OC)c(OC)c2)c1 (stereo not given)
No

Please state the recorded outcome for this compound: `CCOc1ccc(NC(=O)CCC(=O)NN)cc1`
No

Dear all, I need the recorded test outcome for `O=C(NCCNCCCNC(=O)c1cc(-c2ccccc2)nc2ccccc12)c1cccc(O)c1O` , thank you.
No

Dear all, I need the recorded test outcome for O=C1NN=C(c2ccc(Cl)cc2)CC1C1C(=O)N(c2ccccc2)N=C1c1ccccc1 (stereo not given) , thank you.
No
